# test_system: Histone-lysine N-methyltransferase EZH2 (Homo sapiens, UniProt Q15910)
# Sequence (Q15910 whole entry): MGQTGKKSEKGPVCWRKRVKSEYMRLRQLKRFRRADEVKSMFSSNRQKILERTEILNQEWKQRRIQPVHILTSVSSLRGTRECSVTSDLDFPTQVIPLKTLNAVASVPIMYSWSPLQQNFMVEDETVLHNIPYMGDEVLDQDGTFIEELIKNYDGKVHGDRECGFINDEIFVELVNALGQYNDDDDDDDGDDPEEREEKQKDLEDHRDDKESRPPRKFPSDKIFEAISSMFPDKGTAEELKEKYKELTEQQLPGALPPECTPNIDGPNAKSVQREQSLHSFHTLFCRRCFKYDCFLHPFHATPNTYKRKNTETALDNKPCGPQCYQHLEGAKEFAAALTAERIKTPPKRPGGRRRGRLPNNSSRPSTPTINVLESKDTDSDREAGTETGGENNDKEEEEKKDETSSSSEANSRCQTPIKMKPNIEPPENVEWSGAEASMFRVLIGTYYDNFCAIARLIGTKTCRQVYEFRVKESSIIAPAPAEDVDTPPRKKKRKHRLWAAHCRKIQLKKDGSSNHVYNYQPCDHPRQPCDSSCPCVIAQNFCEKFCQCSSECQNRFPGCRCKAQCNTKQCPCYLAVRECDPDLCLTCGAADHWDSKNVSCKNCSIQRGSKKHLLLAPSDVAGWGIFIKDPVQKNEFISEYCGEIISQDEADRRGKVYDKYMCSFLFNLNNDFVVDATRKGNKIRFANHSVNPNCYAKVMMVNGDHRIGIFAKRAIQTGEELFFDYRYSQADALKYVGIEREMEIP
# assay_explanation: Inhibition of wild type EZH2 in human KARPAS-422 cells assessed as effect on H3K27Me3 levels
measured_endpoint: pIC50
pIC50 field: float, defined as -log10 of concentration (mol/L).

Recorded pIC50 for "Cc1cc(C)c(CN2CCc3c(Br)cc(-c4c(C)nnn4C)c(Cl)c3C2=O)c(=O)[nH]1" , please?
7.52

----------
measured_endpoint: pKi
pKi field: float, defined as -log10 of concentration (mol/L).

Provide the documented pKi with Histone-lysine N-methyltransferase EZH2 (Homo sapiens) as the system for "Cc1cc(C)c(CN2CCc3c(Cl)cc(-c4c(C)noc4C)c(Cl)c3C2=O)c(=O)[nH]1"
9.00
